Assay: Pharmacokinetics of released PEGylated protease inhibitor following P.O. administration of prodrugs in rats
Assay type: in vivo, male Sprague-Dawley rats
Details: mPEG6-atazanavir in plasma after PO administration of mPEG6-ATV or of the listed prodrug, rats (n = 4-5)
Assay Metric: Cmax Mean (ng/mL)
Write the value in ng/mL as a bare number.

Here's what some known entries look like.
COCCOCCOCCOCCOCCOCCOC(=O)NC(C(=O)NC(Cc1ccccc1)C(CN(Cc1ccc(-c2ccccn2)cc1)NC(=O)C(NC(=O)OC)C(C)(C)C)OC(=O)C(CC(C)C)NC(=O)C(N)CC(C)C)C(C)(C)C.Cl (stereo not drawn) [Leu-Leu-mPEG6-ATV, Leu-Leu-mPEG6-Atazanavir Hydrochloride]; 14.2
CCCCCCCCCCCCCCCCOCC(COP(=O)(O)OC(CN(Cc1ccc(-c2ccccn2)cc1)NC(=O)C(NC(=O)OC)C(C)(C)C)C(Cc1ccccc1)NC(=O)C(NC(=O)OCCOCCOCCOCCOCCOCCOC)C(C)(C)C)OC (stereo not shown); 0.432
CCCCC(=O)OC(CN(Cc1ccc(-c2ccccn2)cc1)NC(=O)C(NC(=O)OC)C(C)(C)C)C(Cc1ccccc1)NC(=O)C(NC(=O)OCCOCCOCCOCCOCCOCCOC)C(C)(C)C (stereo not shown); 13.8

Could you now look at the following molecule, please?
State the recorded Cmax Mean for this entry: COCCOCCOCCOCCOCCOCCOC(=O)NC(C(=O)NC(Cc1ccccc1)C(CN(Cc1ccc(-c2ccccn2)cc1)NC(=O)C(NC(=O)OC)C(C)(C)C)OC(=O)COCCOC(=O)C(Cc1ccccc1)NC(=O)C(N)Cc1ccccc1)C(C)(C)C (stereo not shown)
7.06
